# METHOD: P-glycoprotein substrates identified in KB-8-5-11 adenocarcinoma cell line, qHTS therapeutic library screen (AID 1346987); further: nearly all actives have a fitted effect of over 65% in size
# ASSAY SETUP: KB-8-5-11 (P-gp overexpressing) viability, CellTiter-Glo, 72 h; series mostly up to 44.5 µM
Records with an inconclusive call do not appear. Active and inactive are the calls of the source. The call rests on the fitted dose curve; in most records, active means well fitted inhibition curve with a large enough effect; inconclusive means small, poorly fitted or top-dose-only effect; inactive means flat fitted curve, though single readings scatter.
Select the correct class. Options are 1.0 = active, 0.0 = inactive and nothing else.

Cc1ccc(/C(=C\CN2CCCC2)c2cccc(/C=C/C(=O)O)n2)cc1 | 0.0
OC(CN1CCCCC1)c1cc(-c2ccccc2)on1 (configuration not stated) | 0.0
OC1C=C2C3CN(Cc4cc5c(cc43)OCO5)C2CC1O (configuration not stated) | 1.0
COc1cccc(OCCCN)c1-c1cc(Nc2cnc(C#N)cn2)n[nH]1 | 1.0
NCCC[C@H](N)C(=O)O | 0.0

[in] Tell me the recorded outcome of this test for C=C(C)C(=O)OC1CC2(C)OC(=CC2=O)C(=C)CC2OC(=O)C(=C)C12 (configuration not stated) .
[out] 1.0

[in] Tell me the recorded outcome of this test for "CN1CCN(c2ccc(-c3cccc(CN4CCOCC4)c3)cc2NC(=O)c2c[nH]c(=O)cc2C(F)(F)F)CC1" .
[out] 0.0

[in] Tell me the recorded outcome of this test for "CCn1c2ccccc2c2cc(Nc3ccnc(NCCCN4CCOCC4)n3)ccc21" .
[out] 1.0

[in] Tell me the recorded outcome of this test for "COC1=C(C(=O)O)N2C(=O)[C@@H](NC(=O)[C@H](N)C3=CCC=CC3)[C@H]2SC1" .
[out] 0.0

[in] Tell me the recorded outcome of this test for "OC[C@H]1O[C@@H](OC/C=C/c2ccc(O)cc2)[C@H](O)[C@@H](O)[C@@H]1O" .
[out] 0.0

[in] Tell me the recorded outcome of this test for C/C=C(\C)C(=O)OC1C[C@@]2(COC(C)=O)O[C@H]2/C=C\[C@@]2(C)O[C@@H]2[C@H]2OC(=O)C(COC(C)=O)=C12 (some centres not stated) .
[out] 0.0

[in] Tell me the recorded outcome of this test for "O=C(NNc1nc2cc(F)ccc2n2cccc12)c1cnccn1" .
[out] 1.0

[in] Tell me the recorded outcome of this test for CN1CC(O)c2cc(N=NC(N)=O)c(O)cc21 (configuration not stated) .
[out] 0.0

[in] Tell me the recorded outcome of this test for C=C1C(=O)O[C@@H]2C[C@]3(C)[C@@H](CCC(C)O)[C@@H]3C[C@H]12 (some centres not stated) .
[out] 0.0

[in] Tell me the recorded outcome of this test for "C=C[C@]1(C)C[C@H](O)[C@H]2C(=C)C(=O)O[C@@H]2[C@H]1C(=C)CO" .
[out] 0.0

[in] Tell me the recorded outcome of this test for "Cc1cccc(N2CCN(C(=O)c3cc(S(=O)(=O)N(C)C)ccc3N3CCCC3)CC2)c1C" .
[out] 0.0

[in] Tell me the recorded outcome of this test for CC1(CO)CC(O)[C@]2(C(=O)O)CCC34CC3(C=CC3[C@]5(C)C(CC[C@]34C)C(C)(CO)[C@@H](O)[C@H](O)[C@@H]5O)C2C1 (some centres not stated) .
[out] 0.0

[in] Tell me the recorded outcome of this test for "CN(C)N(C)C(=O)[C@@]1(Cc2ccccc2)CCCN(C(=O)[C@@H](Cc2c[nH]c3ccccc23)NC(=O)C(C)(C)N)C1" .
[out] 0.0

====

# ASSAY TARGET: Cytochrome P450 2D6 (Homo sapiens)
# METHOD: Cytochrome P450 family 2 subfamily D member 6 (CYP2D6) small molecule antagonists: luciferase biochemical (cell-free) qHTS assay (AID 1645840); further: nearly all actives have a fitted effect of over 55% in size
# ASSAY SETUP: P450-Glo CYP2D6 enzyme, luciferin luminescence, 1 h; series mostly up to 57.4 µM
Inconclusive results are not listed. Activity calls are given as the source filed them. The call rests on the fitted dose curve; in most records, active means well fitted inhibition curve with a large enough effect in the repeat runs; inconclusive means weak or mixed curves; inactive means flat fitted curve, though single readings scatter.
Select the correct class. Options are label 1 = active, label 0 = inactive and nothing else.

[in] Tell me the recorded outcome of this test for "CN(C)c1cccc(Oc2cnc(Nc3cccc(O)c3)nc2)c1" .
[out] label 1

[in] Tell me the recorded outcome of this test for "N#Cc1ccc2ncnc(NCCc3ccccc3)c2c1" .
[out] label 1

[in] Tell me the recorded outcome of this test for "O=C(NCc1cccs1)c1cc2nc(-c3ccco3)cc(C(F)(F)Cl)n2n1" .
[out] label 1

[in] Tell me the recorded outcome of this test for "CN(C)CCn1cc(-c2ccc(F)cc2)c(-n2cccc2)n1" .
[out] label 1

[in] Tell me the recorded outcome of this test for O=C(NCc1ccc(OC(F)(F)F)cc1)C1c2c(F)cccc2C(=O)N1CCc1ccccn1 (stereo unspecified) .
[out] label 1

[in] Tell me the recorded outcome of this test for "CCC[C@H](N[C@H]1CCc2cc(F)cc(F)c2C1)C(=O)Nc1cn(C(C)(C)CNCC(C)(C)C)cn1" .
[out] label 0

====

# System: HaCat
# METHOD: Cytotoxic Profiling of Annotated Libraries Using Quantitative High-Throughput Screening (AID 1296008); further: on the % scale 0 is the no-effect control and ±100 the full control effect; nearly all actives have a fitted effect of over 60% in size
# ASSAY SETUP: Five cell lines viability, CellTiter-Glo ATP luminescence, 48-72 h; hits give low values
# Method: Cell-based phenotypic screening is a commonly used approach to discover biological pathways, novel drug targets, chemical probes and high-quality hit-to-lead molecules. […] A pintool (Kalypsys) was used to transfer 23 nL of compound solution to the 1536-well assay plates. […] Plates were left at room temperature for 10 min before imaging the ATP-coupled luminescence using a ViewLux microplate imager (PerkinElmer, Waltham, MA).
Records with an inconclusive call do not appear.
# max response per record follows
Lab book: enter the figure in %, no units written.

Some entries whose results are on file:
COc1ccc(CNCc2cccc3ccccc23)cc1 | -12.6
C=CC(=O)N1CCC(Oc2cc3c(Nc4ccc(Cl)c(Cl)c4F)ncnc3cc2OC)CC1 | -116
CCNC(=O)Nc1ccc(-c2nc3c(c(N4CCOCC4C)n2)CCN(C2COC2)C3)cc1 (stereo unspecified) | -28.1
CN(C)CCn1cc(-c2ccc(F)cc2)c(-n2cccc2)n1 | 4.28
COc1ccc(-c2cc3onc(-c4ccncc4)c3c(=O)n2C)cc1 | -2.33

Moving on to another compound below.
The measured max response associated with "COc1ccccc1S(=O)(=O)Nc1ccc2c(c1)CN(C)C(=O)N2" reads 2.92

====

# System: NIH3T3
# METHOD: Cytotoxic Profiling of Annotated Libraries Using Quantitative High-Throughput Screening (AID 1296008); further: on the % scale 0 is the no-effect control and ±100 the full control effect; nearly all actives have a fitted effect of over 60% in size
# ASSAY SETUP: Five cell lines viability, CellTiter-Glo ATP luminescence, 48-72 h; hits give low values
Inconclusive results are not listed.
REPORTED PROPERTY: max response (%)
Lab book: enter the figure in %, no units written.

Some entries whose results are on file:
Cc1nc2c(C(F)(F)F)cccc2nc1-c1ccc(-c2cccc(S(C)(=O)=O)c2)cc1 | -12.4
COC(=O)C[C@H]1C(C)(C)[C@H](OC(=O)c2ccccc2)C2CC3=C4CC(=O)O[C@@H](c5ccoc5)[C@]4(C)CCC3[C@@]1(C)C2=O (stereo not given in full) | 0.65
CC1=C(C(=O)OC2CCCCC2)C(c2ccc([N+](=O)[O-])cc2)C2=C(CC(C)(C)CC2=O)N1 (stereo not given) | -3.56
O=C(Nc1cc(C(F)(F)F)cc(C(F)(F)F)c1)c1cnc(Cl)nc1C(F)(F)F | -1.85

The measured max response associated with "CS/C=C/C(=O)O[C@@H]1CCC2=CC(=O)C(=C(C)C)C[C@]2(C)[C@H]1C" reads -13.9

====

# Test system: HeLa
# METHOD: Primary qHTS to identify gynecologic anti-cancer compounds using libraries of approved drugs and bioactive compounds (AID 1345084); further: nearly all actives have a fitted effect of over 55% in size
# ASSAY SETUP: Gynecologic cancer cell panel viability, ATPlite luminescence, 48 h; series mostly up to 57.5 µM
Results filed as inconclusive are left out. The source made the active and inactive calls. Calls come from the whole dose curve; as a rule, active = well fitted cell-killing curve with a large enough effect; inconclusive = small, poorly fitted or top-dose-only effect, or effect the other way; inactive = flat fitted curve, though single readings scatter.
Select the correct class. Options are YES = active, NO = inactive and nothing else.

Consider the following illustrative entries.
O=C(Nc1nc2ccc([N+](=O)[O-])cc2s1)C1CCCCC1 | NO
CC12CCC(OC3OC(CO)C(O)C(O)C3OC3OC(CO)C(O)C(O)C3O)CC1CCC1C2CCC2(C)/C(=C3/COC(=O)C3)CCC12O (stereo unspecified) | NO
C/C=C(\C)C(=O)O[C@H]1C=CC(=O)O[C@H]1/C=C/[C@@H](O)[C@H](C)O | NO

Next item in the queue.
[in] Tell me the recorded outcome of this test for COc1c(C(O)CC(C)C)ccc2c1C(=O)OCc1cc(C)cc(O)c1O2 (stereo unspecified) .
[out] NO

====

# Tested on: SKOV3
# METHOD: Primary qHTS to identify gynecologic anti-cancer compounds using libraries of approved drugs and bioactive compounds (AID 1345084); further: nearly all actives have a fitted effect of over 55% in size
# ASSAY SETUP: Gynecologic cancer cell panel viability, ATPlite luminescence, 48 h; series mostly up to 57.5 µM
Inconclusive results are not listed. Calls of active or inactive are those of the source. The call rests on the fitted dose curve; in most records, active means well fitted cell-killing curve with a large enough effect; inconclusive means small, poorly fitted or top-dose-only effect, or effect the other way; inactive means flat fitted curve, though single readings scatter.
Select the correct class. Options are active, inactive and nothing else.

Consider the following illustrative entries.
NCCOc1cc(C(=O)Nc2cc(OCCN)c3ccccc3n2)nc(C(=O)Nc2cc(OCCN)c3ccccc3n2)c1 | active
Cc1[nH]c(/C=C2\C(=O)Nc3ccc(F)cc32)c(C)c1C(=O)NCCN1CCCC1 | active
C[C@@H]1CCCN1CCc1cc2cc(-c3ccc(C#N)cc3)ccc2o1 | inactive
COc1ccc(NC(=O)C2C[C@H](C)CC[C@H]2C(C)C)cc1 (stereo partly specified) | inactive
O=C(Nc1ccc2[nH]nc(-c3ccncc3)c2c1)[C@@H]1CCN(CC(=O)N2CCN(c3ccc(-c4ncccn4)cc3)CC2)C1 | inactive
CNC(=O)[C@@H](c1ccccc1)N1CCc2cc(OC)c(OC)cc2[C@@H]1CCc1ccc(C(F)(F)F)cc1 | inactive
C1=C/COCc2cc(ccc2OCCN2CCCC2)Nc2nccc(n2)-c2cccc(c2)COC/1 | active
COc1ccc(-c2cc3onc(-c4ccncc4)c3c(=O)n2C)cc1 | active
C=C(C)C1CC(O)C(C)C12CC(O)C1(C)OC1C2O (stereo unspecified) | active
CC1(C)CC[C@]2(C(=O)O[C@@H]3O[C@H](CO)[C@@H](O)[C@H](O)[C@H]3O)CC[C@]3(C)C(=CCC4[C@@]5(C)CC[C@H](O[C@@H]6O[C@H](C(=O)O)[C@H](O)[C@H](O)[C@H]6O)C(C)(C)C5CC[C@]43C)[C@@H]2C1 (stereo partly specified) | inactive

[in] Tell me the recorded outcome of this test for "Cc1ccc(-c2cn3c4c(sc3n2)CCCC4)cc1" .
[out] active

[in] Tell me the recorded outcome of this test for C=C(C)C(=O)OC1CC(CO)CCC/C(CO)=C/C2OC(=O)C(=C)C21 (stereo unspecified) .
[out] inactive

[in] Tell me the recorded outcome of this test for "O=C(c1ccccn1)N(Cc1cccs1)C1(C(=O)NC2CCCCC2)CCCCC1" .
[out] inactive

[in] Tell me the recorded outcome of this test for "CC(C)OC(=O)N1CCC(Oc2ncnc3c2cnn3-c2ccc(S(C)(=O)=O)cc2F)CC1" .
[out] inactive

[in] Tell me the recorded outcome of this test for "COc1ccc(-c2cnc3c(-c4cccc5ncccc45)cnn3c2)cc1" .
[out] inactive

[in] Tell me the recorded outcome of this test for CCC(C(C)O)n1ncn(-c2ccc(N3CCN(c4ccc(OCC5COC(Cn6cncn6)(c6ccc(F)cc6F)C5)cc4)CC3)cc2)c1=O (stereo unspecified) .
[out] inactive

[in] Tell me the recorded outcome of this test for "CC(=O)O[C@H]1C[C@@](O)(C(C)C)[C@@H]2[C@@H](OC(=O)c3ccc(O)cc3)CC(C)=CC[C@@]12C" .
[out] inactive

[in] Tell me the recorded outcome of this test for COc1cc(O)cc(OC2OC(CO)C(O)C(O)C2O)c1 (stereo unspecified) .
[out] inactive

[in] Tell me the recorded outcome of this test for "Cc1ccc(-c2ncc[nH]2)cc1NC(=O)c1ccc(OCc2ccccn2)cc1" .
[out] inactive

[in] Tell me the recorded outcome of this test for "O=C(C1CCCCC1)N(CCN1CCN(c2ccccc2O)CC1)c1ccccn1" .
[out] inactive

[in] Tell me the recorded outcome of this test for "C=C1C(=O)O[C@@H]2C=C(COC(C)=O)CC/C=C(\CO)CC[C@@H]12" .
[out] inactive
